test: self-splicing fitness, log relative to wild type (ln ratio); higher = more splicing; Tetrahymena group I intron in knt gene, E. coli kanamycin selection, DiMSum; sequences stand for … in CUCUCU…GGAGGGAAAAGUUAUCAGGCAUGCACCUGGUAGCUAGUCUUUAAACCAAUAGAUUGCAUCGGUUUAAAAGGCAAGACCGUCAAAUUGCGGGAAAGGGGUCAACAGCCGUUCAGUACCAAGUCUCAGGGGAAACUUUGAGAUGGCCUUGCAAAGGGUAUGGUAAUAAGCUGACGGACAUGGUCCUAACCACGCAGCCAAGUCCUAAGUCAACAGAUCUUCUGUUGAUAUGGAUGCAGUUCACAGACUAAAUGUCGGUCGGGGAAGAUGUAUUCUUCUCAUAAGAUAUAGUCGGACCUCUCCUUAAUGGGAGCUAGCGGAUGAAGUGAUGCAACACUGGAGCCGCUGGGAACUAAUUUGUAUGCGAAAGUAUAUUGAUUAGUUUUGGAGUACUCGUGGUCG; conditions: 30 °C;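 further: selection with 25 µg/mL kanamycin versus none on LB agar overnight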
# key: entry, value: self-splicing fitness (ln)

Query: self-splicing fitness (ln); subject: UCAUAGCAAUAUUACGACUC
-2.18

Same again, this time with CACGAGCAAUAUUACGCAAC
-1.88

Same for GUCCAGCAAUAUUACGUGAU
-0.729

Please answer likewise for CCGUAGCAAUAUUACGUACG
-2.13

GUACAGCAAUAUUACGAGAA , same question.
-2.36

Likewise for ACGGAGCAAUAUUACGAUAG ?
-3.57

For the next question, use this sequence.
// lookup self-splicing fitness (ln) for AUUUAGCAAUAUUACGUUCU
-0.544
